- assay: Volume of distribution at steady state in Sprague-Dawley rat at 2 mg/kg, iv
- Format: ADME, organism-based
- recorded_conditions: in vivo, read-out: Vdss
endpoint_label: Vd (L/kg)

>  <molecule>
CC(C)C(c1nnc[nH]1)c1ccc(-c2ccc3cccc(F)c3c2)[nH]c1=O (stereo not drawn)

>  <unit_info>
L/kg

>  <Vd>
1.98

$$$$

I. CCn1ncc2c(F)cc(-c3ccc(C(CC)(CC)c4nnc[nH]4)c(=O)[nH]3)cc21
II. CC(C)C(c1noc(=O)[nH]1)c1ccc(-c2ccc3cccc(F)c3c2)[nH]c1=O (stereo not drawn)
Higher Vd: I or II ? Pick one and reply with its label. I

---

- assay: Apparent permeability from apical to basolateral side in dog MDCK cells
- Format: ADME, cell-based, Canis lupus familiaris
endpoint_label: Papp A→B (×10⁻⁶ cm/s)
Give just the numeric value; ×10⁻⁶ cm/s need not be written.

Any idea what Papp A→B was measured for CC(C)C(c1noc(=O)[nH]1)c1ccc(-c2ccc3cccc(F)c3c2)[nH]c1=O (stereo unspecified) ? 25.3

---

- assay: Cmax in Sprague-Dawley rat at 20 mg/kg, po
- Assay type: ADME, organism-based
- Set-up: route oral, dose 20 mg/kg
- recorded_conditions: in vivo
endpoint_label: Cmax (ng/mL)

>  <molecule>
CCn1ncc2c(F)cc(-c3ccc(C(CC)(CC)c4nnc[nH]4)c(=O)[nH]3)cc21

>  <Cmax, ng/mL>
5120

$$$$

P. CC(C)C(c1noc(=O)[nH]1)c1ccc(-c2ccc3cccc(F)c3c2)[nH]c1=O (stereo not drawn)
Q. CC(C)C(c1nnc[nH]1)c1ccc(-c2ccc3cccc(F)c3c2)[nH]c1=O (stereo not drawn)
Thinking about recorded Cmax values, which is higher, P or Q ? Give the chosen item's label as your response. P

Numbers sourced from ChEMBL document CHEMBL4819146.
